Hi there, I'd appreciate the recorded standardized gMFI for every entry that follows.
molecular target: T1, HLA-A2 / homologous peptide DOLPP1 complex on T2 cells (human); test: flow cytometry on peptide-pulsed T2 cells, scFv 100 nM;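 also: scFv binding read as gMFI and normalized to the level of HLA/peptide complex displayed on T2 cells, with homologous 9-mer peptides used to probe specificity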
T1 construct: whole, on cells; also called T2 cells supplemented with homologous peptide DOLPP1
Give bare numbers.

Quick request: standardized gMFI for each listed item, please.
1. NYC-0004 (scFv, not shown: small tags and cut ends, also called T1 scFv; NYC-0004 tag adduct) scFv: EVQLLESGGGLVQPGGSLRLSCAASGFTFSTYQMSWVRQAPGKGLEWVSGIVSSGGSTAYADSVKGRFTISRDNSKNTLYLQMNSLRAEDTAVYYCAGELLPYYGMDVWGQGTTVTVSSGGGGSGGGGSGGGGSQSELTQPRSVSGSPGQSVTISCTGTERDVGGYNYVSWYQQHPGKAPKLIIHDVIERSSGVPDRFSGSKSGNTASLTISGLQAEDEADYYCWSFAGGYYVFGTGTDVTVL
2. NYA-2048 (scFv, also called NYA-2048 tag adduct) scFv: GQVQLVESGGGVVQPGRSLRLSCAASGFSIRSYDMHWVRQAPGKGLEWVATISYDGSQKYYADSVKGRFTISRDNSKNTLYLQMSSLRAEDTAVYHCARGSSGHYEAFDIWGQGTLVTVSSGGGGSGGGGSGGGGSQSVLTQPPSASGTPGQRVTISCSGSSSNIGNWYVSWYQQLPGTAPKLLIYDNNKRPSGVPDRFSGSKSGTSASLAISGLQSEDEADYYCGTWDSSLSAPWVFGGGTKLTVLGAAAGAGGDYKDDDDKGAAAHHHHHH
3. NYC-0003 (scFv, not shown: small tags and cut ends, also called 3M4E5 scFv; NYC-0003 tag adduct) scFv: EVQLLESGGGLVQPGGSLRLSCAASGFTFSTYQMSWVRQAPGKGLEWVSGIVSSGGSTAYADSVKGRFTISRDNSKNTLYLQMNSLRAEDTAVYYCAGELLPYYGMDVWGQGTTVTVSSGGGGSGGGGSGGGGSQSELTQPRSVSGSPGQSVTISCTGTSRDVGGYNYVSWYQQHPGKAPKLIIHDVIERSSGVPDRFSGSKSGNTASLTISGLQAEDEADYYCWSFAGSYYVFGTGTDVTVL

1. 0.39
2. 0.44
3. 0.38
